Biological target: Cyclin-dependent kinase 2 (Homo sapiens) (UniProt P24941);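 note: mean inhibition of the CDK2–cyclin A kinase complex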
Details: at 1 µM
Measured inhibition values are reported for all entries that follow.
Respond numerically; units are % and should not be typed.

Field: example entries. Status: answers known.
1) CNC(=O)c1cncc(/C=C/c2c(Cl)cccc2Cl)c1
-0.22
2) Cc1nn(C)c2cc(N(C)c3ccnc(Nc4cccc(S(N)(=O)=O)c4)n3)ccc12
2.33

--- query ---
Prompt: Entry under review: "CS(=O)(=O)CCNCc1nc(-c2ccc3ncnc(Nc4ccc(F)c(Cl)c4)c3c2)cs1" . Reported inhibition?
Response: 9.99

---

Target: Dual specificity tyrosine-phosphorylation-regulated kinase 1B (Homo sapiens) (UniProt Q9Y463);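 note: values are mean percent inhibition of DYRK1B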
Sequence (Q9Y463 whole entry, looked up): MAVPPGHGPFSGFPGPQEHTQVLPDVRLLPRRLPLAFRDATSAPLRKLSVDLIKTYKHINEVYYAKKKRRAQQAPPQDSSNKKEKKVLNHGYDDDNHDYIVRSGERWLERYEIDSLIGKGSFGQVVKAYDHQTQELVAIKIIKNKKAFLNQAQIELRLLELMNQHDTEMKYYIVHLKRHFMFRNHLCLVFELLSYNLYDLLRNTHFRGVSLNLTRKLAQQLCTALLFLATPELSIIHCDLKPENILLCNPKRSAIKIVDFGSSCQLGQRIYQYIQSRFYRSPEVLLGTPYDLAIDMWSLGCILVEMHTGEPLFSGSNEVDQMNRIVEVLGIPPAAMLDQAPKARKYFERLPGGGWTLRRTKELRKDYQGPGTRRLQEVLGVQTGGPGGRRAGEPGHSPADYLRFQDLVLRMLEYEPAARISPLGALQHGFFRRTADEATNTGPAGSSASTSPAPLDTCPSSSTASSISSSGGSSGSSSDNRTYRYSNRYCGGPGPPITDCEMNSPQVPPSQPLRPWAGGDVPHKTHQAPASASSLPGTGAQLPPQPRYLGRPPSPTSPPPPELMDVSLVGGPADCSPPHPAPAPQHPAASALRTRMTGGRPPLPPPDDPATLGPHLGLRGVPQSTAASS
Settings: at 0.1 µM
Quick reference: inhibition of the listed items.
Please respond with the number in % and leave the unit unwritten.

Sample records with inhibition:
1) Nc1ncnc2occ(-c3ccc(NC(=O)Nc4cc(C(F)(F)F)cc(C(F)(F)F)c4)cc3)c12
0.19
2) Fc1cccc(COc2ccc(Nc3ncnc4cc(-c5ccc[nH]5)sc34)cc2Cl)c1
-3.77
3) Nc1nc(-c2ccccn2)c(-c2ccc3ncccc3n2)s1
3.14

Now consider the entry below.
Prompt: Look up inhibition: "CCn1c(-c2nonc2N)nc2c(C#CC(C)(C)O)nc(OC[C@@H](N)c3ccccc3)cc21"
Response: 1.06

---

Target: Phosphatidylinositol 4,5-bisphosphate 3-kinase catalytic subunit delta isoform (Homo sapiens) (UniProt O00329);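 note: values are mean percent inhibition of PI3K-delta, part of the GSK PKIS screen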
Sequence (O00329 whole entry, canonical isoform): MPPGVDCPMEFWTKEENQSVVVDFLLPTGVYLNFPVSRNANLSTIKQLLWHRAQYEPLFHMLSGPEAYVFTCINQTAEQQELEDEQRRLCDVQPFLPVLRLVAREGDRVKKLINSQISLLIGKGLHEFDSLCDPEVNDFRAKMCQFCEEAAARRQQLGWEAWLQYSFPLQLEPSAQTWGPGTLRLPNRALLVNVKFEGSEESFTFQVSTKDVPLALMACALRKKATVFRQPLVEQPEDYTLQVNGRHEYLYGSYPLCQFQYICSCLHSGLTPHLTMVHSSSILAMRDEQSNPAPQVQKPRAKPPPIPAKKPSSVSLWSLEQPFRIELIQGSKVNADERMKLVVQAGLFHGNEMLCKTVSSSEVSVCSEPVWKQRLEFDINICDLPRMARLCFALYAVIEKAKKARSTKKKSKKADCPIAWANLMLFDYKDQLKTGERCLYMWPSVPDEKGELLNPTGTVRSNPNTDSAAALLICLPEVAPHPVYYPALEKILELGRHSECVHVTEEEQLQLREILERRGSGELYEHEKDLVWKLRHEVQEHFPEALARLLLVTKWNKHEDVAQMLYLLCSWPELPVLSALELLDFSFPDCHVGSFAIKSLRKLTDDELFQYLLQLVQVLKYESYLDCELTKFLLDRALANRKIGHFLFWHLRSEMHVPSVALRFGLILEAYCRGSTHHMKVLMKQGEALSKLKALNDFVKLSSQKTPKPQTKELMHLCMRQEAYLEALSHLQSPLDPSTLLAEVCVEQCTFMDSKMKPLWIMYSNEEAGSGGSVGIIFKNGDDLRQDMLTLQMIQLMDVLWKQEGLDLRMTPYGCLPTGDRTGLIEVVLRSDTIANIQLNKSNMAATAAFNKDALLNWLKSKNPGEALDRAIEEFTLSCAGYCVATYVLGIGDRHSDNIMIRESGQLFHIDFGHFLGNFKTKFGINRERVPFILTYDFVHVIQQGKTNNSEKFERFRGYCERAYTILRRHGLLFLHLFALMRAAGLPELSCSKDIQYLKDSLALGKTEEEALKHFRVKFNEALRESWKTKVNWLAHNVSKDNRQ
Conditions: at 0.1 µM
Listing of recorded inhibition by entry.
Record the value in %, omitting the unit from your answer.

1. CCc1cccc(NC(=O)Nc2ccc(Oc3ccc4nc(NC(=O)OC)[nH]c4c3)cc2)c1
0.28
2. CCn1c(-c2nonc2N)nc2ccncc21
2.2

Prompt: What value of measured inhibition is listed for "CCCN1CCC(Oc2cc(Nc3nc(Nc4cccc(F)c4C(N)=O)c4cc[nH]c4n3)c(OC)cc2Cl)CC1" ?
Response: -0.45

Prompt: # lookup: inhibition of "CCn1c(-c2nonc2N)nc2c(N3CCCC3)nccc21"
Response: 0.19

Prompt: Entry under review: "COc1cc(C)c(NC(=O)CN(C)C)cc1Nc1nc(Nc2cccc(F)c2C(N)=O)c2cc[nH]c2n1" . Reported inhibition?
Response: 0.12

Prompt: Give the measured inhibition of "COc1cc2c(cc1Nc1nc(N3CCc4ccccc43)c3cc[nH]c3n1)N(C(=O)CN(C)C)CC2" .
Response: 1.22

Prompt: Which inhibition reading was recorded for the compound "COc1cc(C=NNc2ncnc3c2cnn3-c2ccccc2)ccc1O" ?
Response: 8.17

Prompt: Requested read-out: inhibition. Entry: "COc1ccccc1Nc1ncc(-c2ccccc2)o1"
Response: 0.95

Prompt: Given the compound "CN(C)c1cc2c(Nc3ccc4nc(Cc5ccccc5)[nH]c4c3)ncnc2cn1" , what is its reported inhibition?
Response: 7.22

Prompt: Look up inhibition for this compound: "CCn1c(-c2nonc2N)nc2cncc(C(=O)N3CCNCC3)c21"
Response: 1.16

---

Target: Mitogen-activated protein kinase 3 (Homo sapiens) (UniProt P27361);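 note: each value is a mean inhibition figure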
Sequence (P27361 whole entry): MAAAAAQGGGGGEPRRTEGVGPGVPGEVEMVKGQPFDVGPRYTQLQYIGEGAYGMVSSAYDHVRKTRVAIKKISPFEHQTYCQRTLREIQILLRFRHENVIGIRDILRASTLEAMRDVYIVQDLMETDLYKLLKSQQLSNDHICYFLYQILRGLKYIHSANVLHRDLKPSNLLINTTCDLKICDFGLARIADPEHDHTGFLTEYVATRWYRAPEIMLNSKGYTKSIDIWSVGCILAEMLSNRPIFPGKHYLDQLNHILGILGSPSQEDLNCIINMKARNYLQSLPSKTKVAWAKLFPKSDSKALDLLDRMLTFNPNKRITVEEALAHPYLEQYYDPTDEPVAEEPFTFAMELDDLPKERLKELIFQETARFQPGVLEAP
Settings: at 0.1 µM
Property Measured: inhibition

Here is how some compounds turned out for inhibition.
1. COc1ccc(-c2coc3ncnc(N)c23)cc1
5.16%
2. CC1=C(C(=O)Nc2ccc3[nH]ncc3c2)C(c2ccc(Cl)c(Cl)c2)CC(=O)N1 (stereo unspecified)
2.47%
3. Nc1nc(-c2ccccn2)c(-c2ccc3ncccc3n2)s1
1.83%
4. Fc1cccc(COc2ccc(Nc3ncnc4cc(-c5ccc[nH]5)sc34)cc2Cl)c1
0.89%

Prompt: Give its inhibition value. Item: "COc1ccc(-c2ccncc2)cc1C(N)=O"
Response: 3.61%

Prompt: I have this compound here, "CC(C)=Cc1cccc2c1/C(=N/Nc1ccc(S(N)(=O)=O)cc1)C(=O)N2" , and I need its recorded inhibition.
Response: 0.6%
